Target: SARS-CoV-2 spike on VSV-pseudotype SARS-CoV-2 (SARS-CoV-2, UniProt P0DTC2 14-1273)
Experiment: cell-based or functional assay
A collection of binders and their measured NC50
// units = µg/mL; emit number, no label

variant 5-20 (Fc fusion) VHH: EVQLVESGGGLVQPGGSLRLSCAASGRTIVPYTMGWFRQAPGKERELVAAISPSAFTEYADSVKGRFTISADNSKNTAYLQMNSLKPEDTAVYYCAARRWGYDWGQGTLVTVSS; 0.27
variant 6-20 (Fc fusion) VHH: EVQLVESGGGLVQPGGSLRLSCAASGSTLPYHAMGWFRQAPGKEREFVAAITWNGASTSYADSVKGRFTISADNSKNTAYLQMNSLKPEDTAVYYCARDRYYDTSASYFESETWGQGTLVTVSS; 5.03
variant 6-26 (Fc fusion) VHH: EVQLVESGGGLVQPGGSLRLSCAASGDTFSTSWMGWFRQAPGKEREFVATINTGGGTNYADSVKGRFTISADNSKNTAYLQMNSLKPEDTAVYYCARVTTSFDYWGQGTLVTVSS; 2.97

From here, focus on the item given below.
Lab book: NC50 of variant 6-3 (Fc fusion) VHH: EVQLVESGGGLVQPGGSLRLSCAASGFTFSPSWMGWFRQAPGKEREFVATINEYGGRNYADSVKGRFTISADNSKNTAYLQMNSLKPEDTAVYYCARVDRDFDYWGQGTLVTVSS noted as 0.06

Provenance of the data: patent US20210355194A1
